Data origin, for the record: paper PMC5240567

# SYSTEM_UNDER_TEST: T1, PREP1hd (UniProt P55347 257-325)
# T1 sequence: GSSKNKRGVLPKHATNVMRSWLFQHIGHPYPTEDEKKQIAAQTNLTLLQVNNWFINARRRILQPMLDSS
# METHOD_NOTES: fluorescence polarization; FP and EMSA: 20 mM Na/K phosphate pH 7.2, 150 mM NaCl, 5% glycerol, 1 mM TCEP, room temperature (FP 9 nM DNA, 30 min; EMSA gel run at 4 C in 0.5x TBE); NMR: 20
# EXPERIMENTAL_SETUP: protein: recombinant; tags: GST cleaved (pGEX-6P); label: 5' 6-FAM (FP); unlabeled in EMSA
METRIC_NAME: pKd
Kindly note that pKd refers to -log10 of the concentration in mol/L and answer with the value alone.

Data request: Using known records, supply pKd for PH (dsDNA) DNA 1: AGAGTGATTGATAAGG DNA 2: CCTTATCAATCACTCT
Data returned: 4.29
